assay-name: Confirmatory qHTS for Inhibitors of ATXN expression; further: potency means the concentration at half of the fitted maximal effect; nearly all actives have a fitted effect of over 65% in size
details: ATXN2-luciferase reporter cells, luminescence, 24 h; series mostly up to 11.5 µM
Hit rate of the full screen: of about 2,100 compounds, about 940 (45%) were called active. About 48% were inconclusive and are not listed. The set was probably picked from earlier hits. This is one part of the list.

molecule	Potency
O=C(Nc1ccccc1C(=O)Nc1nnc(C(F)(F)F)s1)c1ccccc1Cl	3.55 µM (active)
Cc1cc(C)cc(NC(=O)/C(C#N)=C/c2cn(CC(=O)NCc3ccco3)c3ccccc23)c1	1.78 µM (active)
Oc1c(C(Nc2cccc(C(F)(F)F)c2)c2ccncc2)ccc2cccnc12 (stereo not drawn)	3.55 µM (active)
